organism: Rattus norvegicus; test: Anti-oxytocic activity on isolated rat uterus in presence of 0.5 mM of Mg2+. pA2 value is negative logarithm of effective dose (ED); assay type: functional; conditions: read-out: pA2 (converted)
Exercise: for every item that follows, state its recorded log10 Kb.
A value of 2 here means Kb of 100 in nM, since values are log10.

Previously resolved entries follow.
cpd_smiles=CCC[C@@H]1NC(=O)[C@H](Cc2ccccc2)NC(=O)[C@@H]([C@H](C)CC)NC(=O)CC2(CCCCC2)SSC[C@@H](C(=O)N2CCC[C@H]2C(=O)N[C@@H](CCCN=C(N)N)C(=O)NCC(N)=O)NC(=O)[C@H](CC(N)=O)NC1=O quantity="log10 Kb" experimental_value=1.20
cpd_smiles=CC[C@@H](C)[C@H]1NC(=O)CC2(CCCCC2)SSC[C@@H](C(=O)N2CCC[C@H]2C(=O)N[C@@H](CCCN=C(N)N)C(=O)NCC(N)=O)NC(=O)[C@H](CC(N)=O)NC(=O)[C@H](CC(C)C)NC(=O)[C@H](Cc2ccccc2)NC1=O quantity="log10 Kb" experimental_value=1.43
cpd_smiles=CC[C@@H](C)[C@H]1NC(=O)CC2(CCCCC2)SSC[C@@H](C(=O)N2CCC[C@H]2C(=O)N[C@@H](CCCN=C(N)N)C(=O)NCC(N)=O)NC(=O)[C@H](CC(N)=O)NC(=O)[C@H](CC(N)=O)NC(=O)[C@H](Cc2ccccc2)NC1=O quantity="log10 Kb" experimental_value=1.60
cpd_smiles=CC[C@@H](C)[C@H]1NC(=O)CC2(CCCCC2)SSC[C@@H](C(=O)N2CCC[C@H]2C(=O)N[C@@H](CCCN=C(N)N)C(=O)NCC(N)=O)NC(=O)[C@H](CC(N)=O)NC(=O)[C@H]([C@@H](C)CC)NC(=O)[C@H](Cc2ccccc2)NC1=O quantity="log10 Kb" experimental_value=1.18
cpd_smiles=NC(=O)CNC(=O)[C@H](CCCN=C(N)N)NC(=O)[C@@H]1CCCN1C(=O)[C@@H]1CSSC2(CCCCC2)CC(=O)N[C@H](Cc2ccccc2)C(=O)N[C@@H](Cc2ccccc2)C(=O)N[C@@H](CO)C(=O)N[C@@H](CC(N)=O)C(=O)N1 quantity="log10 Kb" experimental_value=1.17

Could you now consider this next molecule?
# log10 Kb (molecule: CC[C@@H](C)[C@H]1NC(=O)CC2(CCCCC2)SSC[C@@H](C(=O)N2CCC[C@H]2C(=O)N[C@@H](CCCN=C(N)N)C(=O)NCC(N)=O)NC(=O)[C@H](CC(N)=O)NC(=O)[C@H](CO)NC(=O)[C@H](Cc2ccccc2)NC1=O ) is 2.18

----------
test system: Rattus norvegicus; assay: Evaluated in vivo for logarithm effective dose (ED); assay type: functional, organism-based
*1 amine or outer side, *2 acyl side, *3 side chain or, on linkers, in order; H or OH if unused. Where a SMILES comes first, the peptide text is derived from it. Bridges are numbered along the chain shown (N, C = ends). [ ]: non-standard residue; d: D form. X1 = O=C(CC1(S[*:2])CCCCC1)[*:1]; Orn = NCCC[C@H](N)C(=O)O
Assign a class from recorded in vivo pA2 effective dose (as concentration); defined classes: low (below 60 nM), middle (60 nM to below 200 nM), high (200 nM or more)

These solved cases illustrate the format of a correct answer.
compound=CC[C@@H](C)[C@H]1NC(=O)CC2(CCCCC2)SSC[C@@H](C(=O)N2CCC[C@H]2C(=O)N[C@@H](CCCN=C(N)N)C(=O)NCC(N)=O)NC(=O)[C@H](CC(N)=O)NC(=O)[C@H](CCCN)NC(=O)[C@H](Cc2ccccc2)NC1=O class_label=middle
compound=CC[C@@H](C)[C@H]1NC(=O)CC2(CCCCC2)SSC[C@@H](C(=O)N2CCC[C@H]2C(=O)N[C@@H](CCCN=C(N)N)C(=O)NCC(N)=O)NC(=O)[C@H](CC(N)=O)NC(=O)[C@H](CC(C)C)NC(=O)[C@H](Cc2ccccc2)NC1=O class_label=middle
compound=CC[C@@H](C)[C@H]1NC(=O)CC2(CCCCC2)SSC[C@@H](C(=O)N2CCC[C@H]2C(=O)N[C@@H](CCCN=C(N)N)C(=O)NCC(N)=O)NC(=O)[C@H](CC(N)=O)NC(=O)[C@H](CC2CCCCC2)NC(=O)[C@H](Cc2ccccc2)NC1=O class_label=high

In: Any idea which band CC[C@@H](C)[C@H]1NC(=O)CC2(CCCCC2)SSC[C@@H](C(=O)N2CCC[C@H]2C(=O)N[C@@H](CCCN=C(N)N)C(=O)NCC(N)=O)NC(=O)[C@H](CC(N)=O)NC(=O)[C@H](CO)NC(=O)[C@H](Cc2ccccc2)NC1=O is in?
Out: high

In: Any idea which band NCCC[C@@H]1NC(=O)[C@H](Cc2ccccc2)NC(=O)[C@@H](Cc2ccccc2)NC(=O)CC2(CCCCC2)SSC[C@@H](C(=O)N2CCC[C@H]2C(=O)N[C@@H](CCCN=C(N)N)C(=O)NCC(N)=O)NC(=O)[C@H](CC(N)=O)NC1=O ([dF]F[Orn]NCPRG-NH2; linker N-5 via X1) is in?
Out: low
